Catalogue of melting point readings, one per entry.
Write down the numeric answer in °C and omit the unit.

INSERT INTO assay_data (molecule, result_units, recorded_measurement) VALUES
  ('CC1=C(C(=O)N2CCCCC2)C(c2ccc(F)cc2)NC(=S)N1 (centres unmarked) [DHPM-KN2]', '°C', 234);

Next, consider the following molecule.
Quick check: melting point of CC1=C(C(=O)N2CCCCC2)C(c2ccc(O)cc2)NC(=S)N1 (centres unmarked) [DHPM-KN11] ?
274

###

Catalogue of melting point readings, one per entry.
Write down the numeric answer in °C and omit the unit.

// below: answered compounds
INSERT INTO measurements (compound, recorded_measurement) VALUES
  ('CC1=C(C(=O)N2CCCC2)C(c2ccccc2)NC(=S)N1 (stereo not drawn) [DHPM-KN14]', 198),
  ('CC1=C(C(=O)N2CCCCC2)C(c2ccc([N+](=O)[O-])cc2)NC(=S)N1 (stereo not drawn) [DHPM-KN5]', 230),
  ('CC1=C(C(=O)N2CCCCC2)C(c2ccc(Cl)cc2)NC(=S)N1 (stereo not drawn) [DHPM-KN9]', 218),
  ('CC1=C(C(=O)N2CCCCC2)C(c2ccc(O)c(O)c2)NC(=S)N1 (stereo not drawn) [DHPM-KN13]', 173),
  ('CC1=C(C(=O)N2CCCCC2)C(c2ccccc2)NC(=S)N1 (stereo not drawn) [DHPM-KN1]', 240),
  ('CC1=C(C(=O)N2CCCCC2)C(c2ccccc2C)NC(=S)N1 (stereo not drawn) [DHPM-KN8]', 260),
  ('COc1ccc(C2NC(=S)NC(C)=C2C(=O)N2CCCCC2)cc1 (stereo not drawn) [DHPM-KN7]', 124),
  ('CC1=C(C(=O)N2CCCCC2)C(c2ccc(C(F)(F)F)cc2)NC(=S)N1 (stereo not drawn) [DHPM-KN10]', 172);

Next, consider the following compound.
Quick check: melting point of CC1=C(C(=O)N2CCCCC2)C(c2ccccc2O)NC(=S)N1 (stereo not drawn) [DHPM-KN12] ?
223

Origin of measurements: patent US11912683B1
